Reference source for all entries: patent US20230129812A1

- TEST_SYSTEM: T1, activin A (UniProt P08476 311-426)
- T1 construct: also called ActA
- T1 sequence (looked up): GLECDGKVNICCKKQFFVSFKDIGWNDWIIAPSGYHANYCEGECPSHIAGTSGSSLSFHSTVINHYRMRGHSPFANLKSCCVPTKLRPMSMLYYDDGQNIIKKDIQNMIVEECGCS
- MEASUREMENT_NOTES: SPR (Biacore); receptor-Fc captured by anti-hFc antibody, ligand injected
QUANTITY_NAME: Kd (pM)
// units = pM; emit number, no label

Consider the worked cases shown below.
- BINDER: "ActRIIB(R64K 20-134)-hFc (Fc fusion) GRGEAETRECIYYNANWELERTNQSGLERCEGEQDKRLHCYASWKNSSGTIELVKKGCWLDDFNCYDRQECVATEENPQVYFCCCEGNFCNERFTHLPEAGGPEVTYEPPPTAPTGGGTHTCPPCPAPELLGGPSVFLFPPKPKDTLMISRTPEVTCVVVDVSHEDPEVKFNWYVDGVEVHNAKTKPREEQYNSTYRVVSVLTVLHQDWLNGKEYKCKVSNKALPVPIEKTISKAKGQPREPQVYTLPPSREEMTKNQVSLTCLVKGFYPSDIAVEWESNGQPENNYKTTPPVLDSDGSFFLYSKLTVDKSRWQQGNVFSCSVMHEALHNHYTQKSLSLSPGK"
  MEAS_VALUE: 47.6
- BINDER: "ActRIIB(R64K 20-129)-hFc (Fc fusion) GRGEAETRECIYYNANWELERTNQSGLERCEGEQDKRLHCYASWKNSSGTIELVKKGCWLDDFNCYDRQECVATEENPQVYFCCCEGNFCNERFTHLPEAGGPEVTYEPPGGGTHTCPPCPAPELLGGPSVFLFPPKPKDTLMISRTPEVTCVVVDVSHEDPEVKFNWYVDGVEVHNAKTKPREEQYNSTYRVVSVLTVLHQDWLNGKEYKCKVSNKALPVPIEKTISKAKGQPREPQVYTLPPSREEMTKNQVSLTCLVKGFYPSDIAVEWESNGQPENNYKTTPPVLDSDGSFFLYSKLTVDKSRWQQGNVFSCSVMHEALHNHYTQKSLSLSPGK"
  MEAS_VALUE: 84.1

Next item in the queue.
IN: Answer with the recorded Kd for the binder listed here: ActRIIB(A24N 20-134)-hFc (Fc fusion) GRGENETRECIYYNANWELERTNQSGLERCEGEQDKRLHCYASWRNSSGTIELVKKGCWLDDFNCYDRQECVATEENPQVYFCCCEGNFCNERFTHLPEAGGPEVTYEPPPTAPTGGGTHTCPPCPAPELLGGPSVFLFPPKPKDTLMISRTPEVTCVVVDVSHEDPEVKFNWYVDGVEVHNAKTKPREEQYNSTYRVVSVLTVLHQDWLNGKEYKCKVSNKALPVPIEKTISKAKGQPREPQVYTLPPSREEMTKNQVSLTCLVKGFYPSDIAVEWESNGQPENNYKTTPPVLDSDGSFFLYSKLTVDKSRWQQGNVFSCSVMHEALHNHYTQKSLSLSPGK
OUT: 104
